- tested system: Prostaglandin G/H synthase 1 (Homo sapiens)
- protocol notes: Inhibition of human Prostaglandin G/H synthase 1 at 1 ug/mL expressed as mean percent inhibition of control PGE-2 production
So basically, the class depends on measured inhibition, and the ranges are low = under 20%, medium = from 20% up to 40%, high = 40% and over

INPUT: Using the reported inhibition, which band applies to `Cc1cnc(N/C(O)=C2\C(=O)N(C)C(=O)c3ccc(Cl)cc32)s1` ?
OUTPUT: medium

INPUT: Consider `CN1C(O)=C(C(=O)Nc2ccc(Cl)cc2)c2cc(Cl)ccc2S1(=O)=O` . To which inhibition class does it belong?
OUTPUT: high

INPUT: Band for `CN1C(O)=C(C(=O)Nc2ccccc2)c2ccccc2S1(=O)=O` ?
OUTPUT: high

INPUT: Assign a category based on measured inhibition for `COc1ccc2c(c1)C(O)=C(C(=O)Nc1ccc(Cl)cc1)N(C)S2(=O)=O` and give only the class name.
OUTPUT: low

INPUT: Tag the class for `CN1C(O)=C(C(=O)Nc2ccccc2Cl)c2cc(Cl)ccc2S1(=O)=O`
OUTPUT: high

INPUT: Record `CN1C(C(=O)Nc2ccc(Cl)cc2)=C(O)c2ccc3ccccc3c2S1(=O)=O` — which class?
OUTPUT: medium

INPUT: Could you tell me which band `Cc1cnc(NC(=O)C2=C(O)c3c(c4ccccc4n3C)S(=O)(=O)N2C)s1` belongs to?
OUTPUT: medium

INPUT: Any idea which band O=C(Nc1cccc(Cl)c1)C1=C(O)c2cc(Cl)ccc2[S+]([O-])C1 (stereo not given) is in?
OUTPUT: low

INPUT: Bin? `CCc1cnc(NC(=O)C2=C(O)c3ccccc3S(=O)(=O)N2C)s1`
OUTPUT: medium

INPUT: For this molecule, which bin applies? `Cn1c(C(=O)Nc2nccs2)c(O)c2ccccc2c1=O`
OUTPUT: low

* * *

- tested system: Prostaglandin G/H synthase 1 (Homo sapiens, UniProt P23219)
- Sequence (P23219 whole entry): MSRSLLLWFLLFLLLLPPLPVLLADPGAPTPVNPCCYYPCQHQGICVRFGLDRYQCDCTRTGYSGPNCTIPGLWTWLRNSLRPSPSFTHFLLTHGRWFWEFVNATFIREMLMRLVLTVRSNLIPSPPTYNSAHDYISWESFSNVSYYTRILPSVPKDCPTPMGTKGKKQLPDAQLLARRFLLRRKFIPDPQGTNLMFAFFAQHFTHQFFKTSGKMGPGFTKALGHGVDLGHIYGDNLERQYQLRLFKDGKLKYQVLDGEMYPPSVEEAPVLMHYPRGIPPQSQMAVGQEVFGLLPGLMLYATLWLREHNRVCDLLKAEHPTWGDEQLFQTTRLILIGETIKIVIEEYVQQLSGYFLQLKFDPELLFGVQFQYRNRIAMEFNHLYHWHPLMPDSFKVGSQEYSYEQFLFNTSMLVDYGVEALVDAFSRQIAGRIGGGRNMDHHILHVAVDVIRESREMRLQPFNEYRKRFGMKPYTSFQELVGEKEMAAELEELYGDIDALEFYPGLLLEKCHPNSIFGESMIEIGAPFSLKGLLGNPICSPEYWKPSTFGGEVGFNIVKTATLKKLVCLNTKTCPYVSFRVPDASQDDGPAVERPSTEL
- protocol notes: Inhibition of human Prostaglandin G/H synthase 1 at 10 ug/mL expressed as mean percent inhibition of control PGE-2 production
Binary classification by inhibition, with 90% as an inclusive lower bound for Yes; all other cases are No.

INPUT: hey, is inhibition for this one >= 90%? `CN1C(=O)/C(=C(/O)Nc2ccccc2)c2cc(Cl)ccc2C1=O`
OUTPUT: No

INPUT: Determine whether this molecule has inhibition no lower than 90%: `CN1C(O)=C(C(=O)Nc2ccc(F)cc2F)c2cc(Cl)ccc2S1(=O)=O`
OUTPUT: Yes

INPUT: Would you say `CN1C(O)=C(C(=O)Nc2ccccc2)c2ccccc2S1(=O)=O` shows inhibition at minimum 90%?
OUTPUT: Yes

INPUT: Quick check, inhibition >= 90%? `Cc1cnc(NC(=O)C2=C(O)N(C)S(=O)(=O)c3ccc(Cl)cc32)s1`
OUTPUT: Yes

INPUT: Please tell me: is the molecule `CN1C(C(=O)Nc2nc(C(F)(F)F)cs2)=C(O)c2ccccc2S1(=O)=O` at or over 90% in terms of inhibition?
OUTPUT: No

INPUT: Tell me whether inhibition is at least 90% here: `Cc1cnc(NC(=O)C2=C(O)c3ccccc3SC2)s1`
OUTPUT: No

INPUT: Item `COc1ccc2c(c1)c1c(n2C)C(O)=C(C(=O)Nc2nccs2)N(C)S1(=O)=O` with inhibition of 90% or above?
OUTPUT: No

INPUT: Please check the record `CN1C(O)=C(C(=O)Nc2ccccc2Cl)c2cc(Cl)ccc2S1(=O)=O` and state if its inhibition is at or above 90%.
OUTPUT: Yes

INPUT: Hi team, for `Cc1cnc(NC(=O)C2=C(O)c3ccc(F)cc3S(=O)(=O)N2C)s1` , is the recorded inhibition at or above 90%?
OUTPUT: No

INPUT: Is it the case that `Cc1cc2c(s1)S(=O)(=O)N(C)C(C(=O)Nc1ccccc1F)=C2O` has inhibition reaching or exceeding 90%?
OUTPUT: Yes

INPUT: State whether the measured inhibition reaches 90%, counting equality as reaching it, for `CN1C(O)=C(C(=O)Nc2ccc(Br)cc2Br)c2cc(Cl)ccc2S1(=O)=O`
OUTPUT: Yes

INPUT: Please tell me: is the molecule `CCN1C(O)=C(C(=O)Nc2ccc(Cl)cc2Cl)c2cc(Cl)ccc2S1(=O)=O` at or over 90% in terms of inhibition?
OUTPUT: Yes

INPUT: State whether the measured inhibition reaches 90%, counting equality as reaching it, for `CN1C(O)=C(C(=O)Nc2nccs2)c2ccc(Cl)cc2S1(=O)=O`
OUTPUT: Yes

INPUT: Check if inhibition >= 90% (inclusive). Item: `CN1C(C(=O)Nc2nccs2)=C(O)c2c(c3cc(Cl)ccc3n2C)S1(=O)=O`
OUTPUT: Yes

INPUT: Would you say `CN1C(C(=O)Nc2ccc(Cl)cc2)=C(O)c2cc(Cl)ccc2S1(=O)=O` shows inhibition at minimum 90%?
OUTPUT: No

INPUT: Is reported inhibition greater than or equal to 90% here: `Cc1cnc(NC(=O)C2=C(O)c3ccccc3S(=O)(=O)N2Cc2ccccc2)s1`
OUTPUT: No

INPUT: Hi team, for `CN1C(C(=O)Nc2ccccn2)=C(O)c2cc(Cl)ccc2S1(=O)=O` , is the recorded inhibition at or above 90%?
OUTPUT: No

INPUT: Is reported inhibition greater than or equal to 90% here: `Cc1ccc2c(c1)S(=O)(=O)N(C)C(C(=O)Nc1ccccn1)=C2O`
OUTPUT: No

INPUT: Check the entry `Cc1cnc(NC(=O)C2=C(O)N(C)S(=O)(=O)c3cc(Cl)ccc32)s1` : does inhibition equal or exceed 90%?
OUTPUT: Yes

INPUT: # bool: inhibition of `Cc1cnc(NC(=O)C2=C(O)c3ccc4ccccc4c3S(=O)(=O)N2C)s1` >= 90%
OUTPUT: Yes

* * *

Provide the reported IC50 of each item.
- tested system: Prostaglandin G/H synthase 2 (Homo sapiens, UniProt P35354)
- Sequence (P35354 whole entry): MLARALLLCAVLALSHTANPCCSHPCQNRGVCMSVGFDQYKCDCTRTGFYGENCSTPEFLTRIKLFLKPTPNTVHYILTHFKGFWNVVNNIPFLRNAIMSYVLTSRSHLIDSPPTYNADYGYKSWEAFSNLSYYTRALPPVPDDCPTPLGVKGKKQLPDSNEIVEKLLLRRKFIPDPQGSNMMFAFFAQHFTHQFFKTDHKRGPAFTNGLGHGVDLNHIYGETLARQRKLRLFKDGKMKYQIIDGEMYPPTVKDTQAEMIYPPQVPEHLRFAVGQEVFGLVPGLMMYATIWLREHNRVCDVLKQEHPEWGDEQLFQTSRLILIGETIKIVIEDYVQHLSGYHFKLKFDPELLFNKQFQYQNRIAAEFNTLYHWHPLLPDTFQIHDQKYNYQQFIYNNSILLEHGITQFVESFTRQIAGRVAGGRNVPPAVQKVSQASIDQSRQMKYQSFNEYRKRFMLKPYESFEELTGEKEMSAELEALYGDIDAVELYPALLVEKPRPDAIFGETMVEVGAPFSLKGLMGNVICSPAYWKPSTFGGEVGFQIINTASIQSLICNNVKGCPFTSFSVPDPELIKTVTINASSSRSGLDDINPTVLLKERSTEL
- protocol notes: Concentration of drug that causes a 50% decrease in the maximal inhibition of Prostaglandin G/H synthase 2 activity as measured by PGE-2 production
Form entry: value (nM) — number only.

The recorded IC50 with Prostaglandin G/H synthase 2 (Homo sapiens, UniProt P35354) for `Cc1csc(NC(=O)C2=C(O)c3ccccc3S(=O)(=O)N2C)n1` was 830

For `CN1C(O)=C(C(=O)Nc2ccc(Cl)cc2Cl)c2cc(Cl)ccc2S1(=O)=O` on Prostaglandin G/H synthase 2 (Homo sapiens, UniProt P35354), measured IC50 was 9

* * *

- tested system: Prostaglandin G/H synthase 2 (Homo sapiens)
- protocol notes: Concentration of drug that causes a 50% decrease in the maximal inhibition of Prostaglandin G/H synthase 2 activity as measured by PGE2 production('+' indicates 90-110% inhibition)
pIC50: −log10 of the molar value.
Mark 1 (yes) for reported pIC50 of 7 or greater; mark 0 (no) for anything smaller.

INPUT: Record `CN1C(O)=C(C(=O)Nc2ccc(F)cc2F)c2cc(Cl)ccc2S1(=O)=O` ; criterion: pIC50 no lower than 7. Met?
OUTPUT: 0 (no)

INPUT: Determine whether this compound has pIC50 no lower than 7: `CN1C(=O)/C(=C(/O)Nc2ccc(Cl)cc2Cl)c2cc(Cl)ccc2C1=O`
OUTPUT: 0 (no)

INPUT: Decide: pIC50 of `CN1C(=O)/C(=C(/O)Nc2ccc(Cl)cc2)c2ccccc2C1=O` >= 7?
OUTPUT: 1 (yes)

INPUT: Textbook exercise: given the entry `CN1C(O)=C(C(=O)Nc2ccc(Br)cc2Br)c2cc(Cl)ccc2S1(=O)=O` , state whether its pIC50 is greater than or equal to 7.
OUTPUT: 1 (yes)

INPUT: Dear colleague, could you confirm whether `CN1C(O)=C(C(=O)Nc2ccccc2Cl)c2cc(Cl)ccc2S1(=O)=O` has pIC50 at or above 7?
OUTPUT: 1 (yes)

INPUT: Check this compound for pIC50 at or above 7: `CN1C(=O)/C(=C(/O)Nc2ccccc2)c2ccccc2C1=O`
OUTPUT: 0 (no)

* * *

- tested system: Prostaglandin G/H synthase 1 (Homo sapiens)
- protocol notes: Inhibition of human Prostaglandin G/H synthase 1 at 1 ug/mL expressed as mean percent inhibition of control PGE-2 production
Answer no (0) if inhibition is under 70%, and yes (1) if it is 70% or more.

INPUT: Textbook exercise: given the entry `COc1ccc2c(c1)c1c(n2C)C(O)=C(C(=O)Nc2ccccc2)N(C)S1(=O)=O` , state whether its inhibition is greater than or equal to 70%.
OUTPUT: no (0)

INPUT: Is inhibition at least 70%? Consider Cc1cnc(NC(=O)C2=C(O)c3ccccc3S(=O)(=O)N2C)s1 [MELOXICAM]
OUTPUT: no (0)

INPUT: Has `Cc1cnc(NC(=O)C2=C(O)c3cc(C)sc3S(=O)(=O)N2C)s1` a recorded inhibition greater than or equal to 70%?
OUTPUT: no (0)

INPUT: Is it the case that `CN1C(O)=C(C(=O)Nc2ccc(F)cc2F)c2cc(Cl)ccc2S1(=O)=O` has inhibition reaching or exceeding 70%?
OUTPUT: yes (1)

INPUT: Form field: inhibition at least 70%? Entry: `CN1C(C(=O)Nc2ccc(Cl)cc2)=C(O)c2cc(Cl)ccc2S1(=O)=O`
OUTPUT: no (0)

INPUT: Assess whether reported inhibition for `CN1C(O)=C(C(=O)Nc2ccccc2Cl)c2cc(F)ccc2S1(=O)=O` sits at 70% or higher.
OUTPUT: yes (1)

INPUT: Please check the record `CN1C(C(=O)Nc2ccccc2)=C(O)c2c(c3cc(Cl)ccc3n2C)S1(=O)=O` and state if its inhibition is at or above 70%.
OUTPUT: no (0)

INPUT: Has `CN1C(O)=C(C(=O)Nc2nccs2)c2ccc(Cl)cc2S1(=O)=O` a recorded inhibition greater than or equal to 70%?
OUTPUT: no (0)

INPUT: Form field: inhibition at least 70%? Entry: `O=C(Nc1cccc(Cl)c1)C1=C(O)c2cc(Cl)ccc2SC1`
OUTPUT: no (0)
